Test system: Serratia marcescens expressing IMP-1 (CL5741)
Format: cell-based
recordedConditions: with imipenem 1 μg/ml; 95% inhibition of bacterial growth
Label scheme for CL5741 S. marcescens MITC95 IMP: lower than 3 µM is Not fulfilled, 3 µM and above is Fulfilled.

| compound | assayedSystem | assignedLabel |
| --- | --- | --- |
| NCCC1CCN(c2ccc(S(=O)(=O)N[C@@H]3CCNC3)c(S(N)(=O)=O)c2-c2nn[nH]n2)CC1 | Serratia marcescens expressing IMP-1 (CL5741) | Not fulfilled |
| NS(=O)(=O)c1ccc(N2CCC3(CCNCC3)C2=O)c(-c2nn[nH]n2)c1S(N)(=O)=O | Serratia marcescens expressing IMP-1 (CL5741) | Fulfilled |
| NCC1CCN(c2ccc(S(=O)(=O)N[C@@H]3CCNC3)c(S(N)(=O)=O)c2-c2nnn[nH]2)CC1 | Serratia marcescens expressing IMP-1 (CL5741) | Not fulfilled |
| NS(=O)(=O)c1c(S(=O)(=O)N[C@@H]2CCNC2)ccc(N2CCC(CCO)C2)c1-c1nnn[nH]1 (stereo partly shown) | Serratia marcescens expressing IMP-1 (CL5741) | Fulfilled |
| NS(=O)(=O)c1c(S(=O)(=O)N[C@@H]2CCNC2)ccc(N2CCC(O)CC2)c1-c1nnn[nH]1 | Serratia marcescens expressing IMP-1 (CL5741) | Fulfilled |

Check this compound for CL5741 S. marcescens MITC95 IMP at or above 3 µM: NCCNS(=O)(=O)C1CCN(c2ccc(S(=O)(=O)NC[C@H](O)CN)c(S(N)(=O)=O)c2-c2nn[nH]n2)CC1 [Example 131] Not fulfilled

Check this compound for CL5741 S. marcescens MITC95 IMP at or above 3 µM: NC[C@@H](O)CNS(=O)(=O)c1ccc(N2CCC3(CC2)CNC(=O)OC3)c(-c2nn[nH]n2)c1S(N)(=O)=O Fulfilled

---

Listing of entries alongside the reported pIC50.
assayedSystem: VIM-2 (Escherichia coli)
measurementProtocol: biochemical
recordedConditions: CCF2-FA fluorescence assay; read-out: VIM2 IC50
Friendly reminder that pIC50 comes from taking -log10 of the concentration in mol/L.

What measured pIC50 goes with NC[C@@H](O)CNS(=O)(=O)c1ccc(N2CCC(C(N)=O)C2)c(-c2nn[nH]n2)c1S(N)(=O)=O (stereo partly shown) ? 8.61

What measured pIC50 goes with NC[C@@H](O)CNS(=O)(=O)c1ccc(N2C[C@@H]3[C@@H](CN)[C@@H]3C2)c(-c2nn[nH]n2)c1S(N)(=O)=O ? 7.61

What measured pIC50 goes with NS(=O)(=O)c1c(S(=O)(=O)C2CNC2)ccc(N2CCN(CCO)CC2)c1-c1nnn[nH]1 ? 7.16

What measured pIC50 goes with NS(=O)(=O)c1c(S(=O)(=O)C2CNC2)ccc(N2CCC(CCO)CC2)c1-c1nnn[nH]1 ? 9.09

---

Test system: Serratia marcescens expressing IMP-1 (CL5741)
Format: cell-based
recordedConditions: with imipenem 1 μg/ml; 95% inhibition of bacterial growth
recordedEndpoint: CL5741 S. marcescens MITC95 IMP

Any idea what CL5741 S. marcescens MITC95 IMP came out for NCCNS(=O)(=O)c1ccc(N2CCN(CCO)CC2)c(-c2nnn[nH]2)c1S(N)(=O)=O [Example 48] on Serratia marcescens expressing IMP-1 (CL5741)? 0.05 µM

Any idea what CL5741 S. marcescens MITC95 IMP came out for N[C@H]1CCCN(c2ccc(S(=O)(=O)N[C@@H]3CCNC3)c(S(N)(=O)=O)c2-c2nn[nH]n2)C1=O [Example 156] on Serratia marcescens expressing IMP-1 (CL5741)? 1.56 µM
